- TARGET_OF_ASSAY: Adenosine kinase (Homo sapiens)
- Sequence (P55263 whole entry): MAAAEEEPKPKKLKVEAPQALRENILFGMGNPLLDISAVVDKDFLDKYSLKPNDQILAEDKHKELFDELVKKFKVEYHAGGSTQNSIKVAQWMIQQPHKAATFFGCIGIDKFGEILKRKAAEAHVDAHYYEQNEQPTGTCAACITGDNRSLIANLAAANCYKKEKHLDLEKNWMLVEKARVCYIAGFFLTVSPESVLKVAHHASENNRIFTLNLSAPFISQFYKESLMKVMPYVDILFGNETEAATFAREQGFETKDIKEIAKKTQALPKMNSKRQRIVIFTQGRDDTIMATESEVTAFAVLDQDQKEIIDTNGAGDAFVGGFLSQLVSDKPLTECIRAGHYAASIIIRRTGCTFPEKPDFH
- ASSAY_PROTOCOL: Tested for inhibitory activity against AK in an in vitro cell-free enzyme assay
pIC50: −log10 of the molar value.
MEASURE: pIC50

SMILES_TEXT	pIC50
Nc1ncnc2nc(-c3ccc(N4CCOCC4)nc3)cc(NCc3c[nH]c4ccccc34)c12	8.00

[a] Nc1ncnc2nc(-c3ccc(N4CCOCC4)nc3)cc(-c3cccc(Br)c3)c12
[b] Nc1ncnc2nc(-c3ccc(N4CCOCC4)nc3)cc(NCCc3c[nH]c4ccccc34)c12
Recorded pIC50 values differ for a and b ; which one is higher? Reply with the label of the item you choose.
a
(a: 8.77, b: 7.64)
